Hey, just so you know, these numbers are from patent US20240209076A1.

Biological target: T1, human IL-6 (human, UniProt P05231 30-212)
T1 construct: IL-6 flowed over captured antibodies
T1 sequence (P05231 30-212 limits assumed): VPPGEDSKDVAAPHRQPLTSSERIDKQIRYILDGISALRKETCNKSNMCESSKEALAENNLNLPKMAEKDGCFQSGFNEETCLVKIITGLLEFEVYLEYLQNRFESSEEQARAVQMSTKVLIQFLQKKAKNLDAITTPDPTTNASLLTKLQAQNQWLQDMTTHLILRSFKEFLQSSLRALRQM
Assay: SPR Biacore, supernatant Ab on Protein A chip, 37 C
Protocol: Antibodies were captured on a Protein A chip (GE) by injecting 1:20 cell supernatant dilutions at 10 μL/min for 60 seconds. […] The sensor chip was regenerated by a 60 seconds injection of 10 mM Glycine pH 1.7 at the flow rate of 50 μL/min. […] For this setup, 1 μg/mL of purified antibody was injected over a Protein A chip at 10 μL/min for 25 seconds. […] The sensor chip was regenerated by a 60 seconds injection of 10 mM Glycine pH 1.7 at flow rate of 50 μL/min. […]
Could you mark each record true if its Kd falls strictly under 0.5 nM, and false if it equals or exceeds it?

The examples below pair each entry with its known result.
anti-IL-6 antibody, heavy chain I51R, G66D / light chain M32L, M50D, N52S, M88Q (antibody, IgG1, V domains shown, Full IgG1 (Expi293); VL = variant III) VH: EVQLVESGGGLVQPGGSLRLSCAASGFTFSPFAMSWVRQAPGKGLEWVAKRSPGGSWTYYSDTVTDRFTFSLDTSKSTAYLQMNSLRAEDTAVYYCARQLWGYYALDIWGQGTLVTVSS VL: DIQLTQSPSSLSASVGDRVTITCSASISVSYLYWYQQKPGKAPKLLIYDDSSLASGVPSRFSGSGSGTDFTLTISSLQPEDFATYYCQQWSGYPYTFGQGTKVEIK = true
anti-IL-6 antibody, heavy chain T63L, G66D / light chain M32L, M50D, N52S, M88Q (antibody, IgG1, V domains shown, Full IgG1 (Expi293); VL = variant III) VH: EVQLVESGGGLVQPGGSLRLSCAASGFTFSPFAMSWVRQAPGKGLEWVAKISPGGSWTYYSDLVTDRFTFSLDTSKSTAYLQMNSLRAEDTAVYYCARQLWGYYALDIWGQGTLVTVSS VL: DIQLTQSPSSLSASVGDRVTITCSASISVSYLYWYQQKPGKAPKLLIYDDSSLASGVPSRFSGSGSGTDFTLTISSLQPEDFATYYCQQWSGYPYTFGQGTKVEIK = true
anti-IL-6 antibody, heavy chain T65D, G66D / light chain M32L, M50D, N52S, M88Q (antibody, IgG1, V domains shown, Full IgG1 (Expi293); VL = variant III) VH: EVQLVESGGGLVQPGGSLRLSCAASGFTFSPFAMSWVRQAPGKGLEWVAKISPGGSWTYYSDTVDDRFTFSLDTSKSTAYLQMNSLRAEDTAVYYCARQLWGYYALDIWGQGTLVTVSS VL: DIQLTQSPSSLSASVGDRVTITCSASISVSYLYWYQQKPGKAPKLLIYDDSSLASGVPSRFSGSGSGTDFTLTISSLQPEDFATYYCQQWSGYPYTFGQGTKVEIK = true
anti-IL-6 antibody, heavy chain T63F, G66D / light chain M32L, M50D, N52S, M88Q (antibody, IgG1, V domains shown, Full IgG1 (Expi293); VL = variant III) VH: EVQLVESGGGLVQPGGSLRLSCAASGFTFSPFAMSWVRQAPGKGLEWVAKISPGGSWTYYSDFVTDRFTFSLDTSKSTAYLQMNSLRAEDTAVYYCARQLWGYYALDIWGQGTLVTVSS VL: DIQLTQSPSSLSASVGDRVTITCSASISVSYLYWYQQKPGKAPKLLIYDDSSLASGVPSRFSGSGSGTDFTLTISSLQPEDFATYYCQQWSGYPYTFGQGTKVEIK = true
anti-IL-6 antibody, heavy chain I51G, G66D / light chain M32L, M50D, N52S, M88Q (antibody, IgG1, V domains shown, Full IgG1 (Expi293); VL = variant III) VH: EVQLVESGGGLVQPGGSLRLSCAASGFTFSPFAMSWVRQAPGKGLEWVAKGSPGGSWTYYSDTVTDRFTFSLDTSKSTAYLQMNSLRAEDTAVYYCARQLWGYYALDIWGQGTLVTVSS VL: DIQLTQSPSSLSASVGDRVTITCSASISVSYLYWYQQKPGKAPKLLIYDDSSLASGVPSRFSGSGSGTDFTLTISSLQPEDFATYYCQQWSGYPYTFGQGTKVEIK = false
anti-IL-6 antibody, heavy chain T63W, G66D / light chain M32L, M50D, N52S, M88Q (antibody, IgG1, V domains shown, Full IgG1 (Expi293); VL = variant III) VH: EVQLVESGGGLVQPGGSLRLSCAASGFTFSPFAMSWVRQAPGKGLEWVAKISPGGSWTYYSDWVTDRFTFSLDTSKSTAYLQMNSLRAEDTAVYYCARQLWGYYALDIWGQGTLVTVSS VL: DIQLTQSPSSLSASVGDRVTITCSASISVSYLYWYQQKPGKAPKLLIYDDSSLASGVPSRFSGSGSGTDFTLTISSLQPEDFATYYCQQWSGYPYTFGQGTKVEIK = true
anti-IL-6 antibody, heavy chain T63H, G66D / light chain M32L, M50D, N52S, M88Q (antibody, IgG1, V domains shown, Full IgG1 (Expi293); VL = variant III) VH: EVQLVESGGGLVQPGGSLRLSCAASGFTFSPFAMSWVRQAPGKGLEWVAKISPGGSWTYYSDHVTDRFTFSLDTSKSTAYLQMNSLRAEDTAVYYCARQLWGYYALDIWGQGTLVTVSS VL: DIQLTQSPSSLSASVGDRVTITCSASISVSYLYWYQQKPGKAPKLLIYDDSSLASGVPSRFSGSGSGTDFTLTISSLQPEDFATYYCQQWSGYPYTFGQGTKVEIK = true
anti-IL-6 antibody, heavy chain S35K, G66D / light chain M32L, M50D, N52S, M88Q (antibody, IgG1, V domains shown, Full IgG1 (Expi293); VL = variant III) VH: EVQLVESGGGLVQPGGSLRLSCAASGFTFSPFAMKWVRQAPGKGLEWVAKISPGGSWTYYSDTVTDRFTFSLDTSKSTAYLQMNSLRAEDTAVYYCARQLWGYYALDIWGQGTLVTVSS VL: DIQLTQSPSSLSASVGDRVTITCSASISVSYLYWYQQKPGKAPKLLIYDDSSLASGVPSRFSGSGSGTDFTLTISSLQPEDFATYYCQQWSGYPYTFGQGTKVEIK = false

Switching to the query record.
Problem: For the binder anti-IL-6 antibody, heavy chain T65Y, G66D / light chain M32L, M50D, N52S, M88Q (antibody, IgG1, V domains shown, Full IgG1 (Expi293); VL = variant III) VH: EVQLVESGGGLVQPGGSLRLSCAASGFTFSPFAMSWVRQAPGKGLEWVAKISPGGSWTYYSDTVYDRFTFSLDTSKSTAYLQMNSLRAEDTAVYYCARQLWGYYALDIWGQGTLVTVSS VL: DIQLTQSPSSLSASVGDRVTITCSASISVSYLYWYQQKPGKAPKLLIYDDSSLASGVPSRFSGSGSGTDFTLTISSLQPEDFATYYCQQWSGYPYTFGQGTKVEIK , is Kd under 0.5 nM? true
